Ref: ChEMBL document CHEMBL5608163

# Test system: Staphylococcus aureus
# experiment_description: Antibacterial activity against Staphylococcus aureus
# Assay type: functional
Peptide text beside a SMILES is read from it.
Lab note: anything with MIC below 10 µM is marked 1.0; values at 10 µM or higher are marked 0.0.

* CC[C@H](C)[C@H](NC(=O)[C@@H](NC(=O)[C@H](CCCCN)NC(=O)[C@H](CC(C)C)NC(=O)[C@H](CC(C)C)NC(=O)[C@@H](N)CCCCN)C(C)C)C(=O)N[C@@H](CCCCN)C(=O)N[C@@H](CCCCN)C(=O)N[C@@H](CC(C)C)C(=O)N[C@@H](CC(C)C)C(N)=O (H-KLLKVIKKLL-NH2) | 1.0
* CC[C@H](C)[C@H](NC(=O)[C@H](CCCCN)NC(=O)[C@H](CCCCN)NC(=O)[C@H](CC(C)C)NC(=O)[C@H](CC(C)C)NC(=O)CN)C(=O)N[C@@H](CCCCN)C(=O)N[C@@H](CCCCN)C(=O)N[C@@H](CC(C)C)C(=O)N[C@@H](CC(C)C)C(N)=O | 0.0
* CC[C@H](C)[C@H](NC(=O)[C@H](CCCNC(=N)N)NC(=O)[C@H](CCCCN)NC(=O)[C@H](CC(C)C)NC(=O)[C@H](CC(C)C)NC(=O)[C@@H](N)CCCCN)C(=O)N[C@@H](CCCCN)C(=O)N[C@@H](CCCCN)C(=O)N[C@@H](CC(C)C)C(=O)N[C@@H](CC(C)C)C(N)=O (H-KLLKRIKKLL-NH2) | 0.0
* CC[C@H](C)[C@H](NC(=O)[C@H](CCCNC(=N)N)NC(=O)[C@H](CCCCN)NC(=O)[C@H](CC(C)C)NC(=O)[C@H](CC(C)C)NC(=O)[C@@H](N)CCCCN)C(=O)N[C@@H](CCCCN)C(=O)N[C@H](C(=O)N[C@@H](CC(C)C)C(=O)N[C@@H](CC(C)C)C(N)=O)[C@@H](C)O (H-KLLKRIKTLL-NH2) | 0.0
* CC[C@H](C)[C@H](NC(=O)[C@H](Cc1ccccc1)NC(=O)[C@H](CCCCN)NC(=O)[C@H](CC(C)C)NC(=O)[C@H](CC(C)C)NC(=O)[C@@H](N)CCCCN)C(=O)N[C@@H](CCCCN)C(=O)N[C@H](C(=O)N[C@@H](CC(C)C)C(=O)N[C@@H](CC(C)C)C(N)=O)[C@@H](C)O (H-KLLKFIKTLL-NH2) | 1.0
* CC[C@H](C)[C@H](NC(=O)[C@@H](NC(=O)[C@H](CCCCN)NC(=O)[C@H](CC(C)C)NC(=O)[C@H](CC(C)C)NC(=O)CN)C(C)C)C(=O)N[C@@H](CCCCN)C(=O)N[C@H](C(=O)N[C@@H](CC(C)C)C(=O)N[C@@H](CC(C)C)C(N)=O)C(C)C (H-GLLKVIKVLL-NH2) | 0.0
* CC[C@H](C)[C@H](NC(=O)[C@H](Cc1c[nH]c2ccccc12)NC(=O)[C@H](CCCCN)NC(=O)[C@H](CC(C)C)NC(=O)[C@H](CC(C)C)NC(=O)CN)C(=O)N[C@@H](CCCCN)C(=O)N[C@H](C(=O)N[C@@H](CC(C)C)C(=O)N[C@@H](CC(C)C)C(N)=O)[C@@H](C)O (H-GLLKWIKTLL-NH2) | 0.0

----------
Item-by-item account of HC10
# System: Erythrocyte
# experiment_description: Hemolytic activity in human erythrocytes incubated for 1 hr by ELISA reader analysis
# Format: toxicity, cell-based
Square brackets hold non-standard residues; d marks the D form. Peptide text beside a SMILES is read from it. Aoc(2) = CCCCCC[C@H](N)C(=O)O; Dab = NCC[C@H](N)C(=O)O
measurement_name: HC10

* CC[C@H](C)[C@H](NC(=O)[C@H](CCCNC(=N)N)NC(=O)[C@H](CCN)NC(=O)[C@H](CC(C)C)NC(=O)[C@H](CC(C)C)NC(=O)CN)C(=O)N[C@@H](CCCCN)C(=O)N[C@@H](CCN)C(=O)N[C@@H](CC(C)C)C(=O)N[C@@H](CC(C)C)C(N)=O (H-GLL[Dab]RIK[Dab]LL-NH2) | > 500 µM
* CCCCCC[C@H](NC(=O)[C@H](CCCCCC)NC(=O)[C@@H](NC(=O)[C@H](CCCCN)NC(=O)[C@@H](NC(=O)[C@H](CCCNC(=N)N)NC(=O)[C@H](CCCCN)NC(=O)[C@H](CCCCCC)NC(=O)[C@H](CCCCCC)NC(=O)CN)[C@@H](C)CC)[C@@H](C)O)C(N)=O (H-G[Aoc(2)][Aoc(2)]KRIKT[Aoc(2)][Aoc(2)]-NH2) | 20 µM
* CC[C@H](C)[C@H](NC(=O)[C@H](CCCNC(=N)N)NC(=O)[C@H](CCCCN)NC(=O)[C@H](CC(C)C)NC(=O)[C@H](C)NC(=O)CN)C(=O)N[C@@H](CCCCN)C(=O)N[C@H](C(=O)N[C@@H](CC(C)C)C(=O)N[C@@H](C)C(N)=O)[C@@H](C)O (H-GALKRIKTLA-NH2) | > 500 µM

----------
# Tested on: Erythrocyte
# experiment_description: Hemolytic activity in human erythrocyte incubated for 70 mins by absorbance based assay
# Type: toxicity, cell-based
# test_parameters: 1.167 h
Bridge positions count the residues as written; N and C are the ends. Square brackets hold non-standard residues; d marks the D form. I, II: the chains in the order shown. * marks the point of attachment. ξ: configuration not given here. Lauroyl = CCCCCCCCCCCC(=O)*; Decanoyl = CCCCCCCCCC(=O)*; Octanoyl = CCCCCCCC(=O)*; Hexanoyl = CCCCCC(=O)*; ξK = NCCCCC(N)C(=O)O; Butyryl = CCCC(=O)*
HC10 by entry:
measurement_name: HC10

• I: Lauroyl-GLLKRIKTLL[ξK][ξK]-NH2 / II: Lauroyl-GLLKRIKTLL[ξK] / III: Lauroyl-GLLKRIKTLL / IV: Lauroyl-GLLKRIKTLL (amide I:11-IV:C, I:12-II:C, II:11-III:C) = 210.92 µM
• I: Decanoyl-GLLKRIKTLL[ξK][ξK]-NH2 / II: Decanoyl-GLLKRIKTLL[ξK] / III: Decanoyl-GLLKRIKTLL / IV: Decanoyl-GLLKRIKTLL (amide I:11-IV:C, I:12-II:C, II:11-III:C) = 12.51 µM
• I: H-GLLKRIKTLL[ξK][ξK]-NH2 / II: H-GLLKRIKTLL[ξK] / III: H-GLLKRIKTLL / IV: H-GLLKRIKTLL (amide I:11-IV:C, I:12-II:C, II:11-III:C) = 1.31 µM
• I: Octanoyl-GLLKRIKTLL[ξK][ξK]-NH2 / II: Octanoyl-GLLKRIKTLL[ξK] / III: Octanoyl-GLLKRIKTLL / IV: Octanoyl-GLLKRIKTLL (amide I:11-IV:C, I:12-II:C, II:11-III:C) = 103.4 µM
• I: Hexanoyl-GLLKRIKTLL[ξK][ξK]-NH2 / II: Hexanoyl-GLLKRIKTLL[ξK] / III: Hexanoyl-GLLKRIKTLL / IV: Hexanoyl-GLLKRIKTLL (amide I:11-IV:C, I:12-II:C, II:11-III:C) = 10.91 µM
• I: Butyryl-GLLKRIKTLL[ξK][ξK]-NH2 / II: Butyryl-GLLKRIKTLL[ξK] / III: Butyryl-GLLKRIKTLL / IV: Butyryl-GLLKRIKTLL (amide I:11-IV:C, I:12-II:C, II:11-III:C) = 1.06 µM

----------
# Test system: Bacillus subtilis
# experiment_description: Antibacterial activity against Bacillus subtilis ATCC 23857 assessed as reduction in bacterial cell growth incubated for 16 to 24 hrs by CLSI-protocol based Mueller-Hinton Broth micro-dilution method
# Assay type: functional
# test_parameters: time 16-24 hrs
Bridge positions count the residues as written; N and C are the ends. Square brackets hold non-standard residues; d marks the D form. I, II: the chains in the order shown. * marks the point of attachment. ξ: configuration not given here. Lauroyl = CCCCCCCCCCCC(=O)*; Decanoyl = CCCCCCCCCC(=O)*; Octanoyl = CCCCCCCC(=O)*; Hexanoyl = CCCCCC(=O)*; ξK = NCCCCC(N)C(=O)O; Butyryl = CCCC(=O)*
measurement_name: MIC (µM)

• I: Hexanoyl-GLLKRIKTLL[ξK][ξK]-NH2 / II: Hexanoyl-GLLKRIKTLL[ξK] / III: Hexanoyl-GLLKRIKTLL / IV: Hexanoyl-GLLKRIKTLL (amide I:11-IV:C, I:12-II:C, II:11-III:C) = 32
• I: Octanoyl-GLLKRIKTLL[ξK][ξK]-NH2 / II: Octanoyl-GLLKRIKTLL[ξK] / III: Octanoyl-GLLKRIKTLL / IV: Octanoyl-GLLKRIKTLL (amide I:11-IV:C, I:12-II:C, II:11-III:C) = 256
• I: Butyryl-GLLKRIKTLL[ξK][ξK]-NH2 / II: Butyryl-GLLKRIKTLL[ξK] / III: Butyryl-GLLKRIKTLL / IV: Butyryl-GLLKRIKTLL (amide I:11-IV:C, I:12-II:C, II:11-III:C) = 16
• I: Lauroyl-GLLKRIKTLL[ξK][ξK]-NH2 / II: Lauroyl-GLLKRIKTLL[ξK] / III: Lauroyl-GLLKRIKTLL / IV: Lauroyl-GLLKRIKTLL (amide I:11-IV:C, I:12-II:C, II:11-III:C) = 256
• I: H-GLLKRIKTLL[ξK][ξK]-NH2 / II: H-GLLKRIKTLL[ξK] / III: H-GLLKRIKTLL / IV: H-GLLKRIKTLL (amide I:11-IV:C, I:12-II:C, II:11-III:C) = 8
• I: Decanoyl-GLLKRIKTLL[ξK][ξK]-NH2 / II: Decanoyl-GLLKRIKTLL[ξK] / III: Decanoyl-GLLKRIKTLL / IV: Decanoyl-GLLKRIKTLL (amide I:11-IV:C, I:12-II:C, II:11-III:C) = 256
